Can you tell me Fluorescence intensity for the items I'm about to list?
# Test system: 293T cells
# ASSAY_SUMMARY: Cellular phagocytosis of DiD-loaded lipid vesicles (nano-drugs) by 293T cells (Example II-51, Table II-29)
# Assay type: cell-based
# ASSAY_CONTEXT: 5 nM; 293T cells pretreated 4 h, DiD lipid vesicles 2 h; n=3; untreated control 226.46 ± 1.26
Write the number on its own, no unit after it.

Fluorescence intensity in this record for CCCCCCCC/C=C\CCCCCCCC(=O)O.OCCO : 121.07

Fluorescence intensity in this record for CCCCCCCCCCCCCCCC(=O)OCC1OC(O)C(O)C(O)C1O (stereo not shown) : 114.00

Fluorescence intensity in this record for CCCCCCCC(=O)O : 108.56

Fluorescence intensity in this record for CCCCCC(=O)O : 114.00

Fluorescence intensity in this record for CCCCCCCCC(=O)O : 176.50

Fluorescence intensity in this record for CCCCCCCCCCCCCCCCCCCCCCCC(=O)OC(C)C(N)C(=O)O (stereo not shown) : 38.29

Fluorescence intensity in this record for CCCCCCCC(=O)OCC(N)C(=O)O (stereo not shown) : 108.56

Fluorescence intensity in this record for CCCCCCCCCCCC(=O)NCCCCC(N)C(=O)O (stereo not shown) : 103.11

Fluorescence intensity in this record for CCCCCC=CCC=CCCCCCCCC(=O)OC(C)C(N)C(=O)O (stereo not shown) : 64.18

Fluorescence intensity in this record for O=C(O)CCCCCCC(=O)O : 68.71

Fluorescence intensity in this record for O=C(O)CCCCCCCCCC(=O)OCC(O)C1OC(=O)C(O)=C1O (stereo not shown) : 92.26

Fluorescence intensity in this record for C/C=C/C(=O)O : 159.29

Fluorescence intensity in this record for C=CCCCCCCCCC(=O)[O-].[Na+] [Sodium undecylenate] : 100.34

Fluorescence intensity in this record for CCCCCC/C=C\CCCCCCCC(=O)OC(C)C(N)C(=O)O (stereo not drawn) [Threonine-cis-9-hexadecanoic acid] : 67.71

Fluorescence intensity in this record for CCCCCCCCCC(=O)O : 114.00

Fluorescence intensity in this record for Cc1c(C)c2c(c(C)c1O)CCC(C)(CCCC(C)CCCC(C)CCCC(C)C)O2 (stereo not shown) : 86.35

Fluorescence intensity in this record for CCCCCCCC/C=C\CCCCCCCC(=O)OCCOCC(OCCO)C1OCC(OCCO)C1OCCO (stereo not shown) : 32.41

Fluorescence intensity in this record for CC/C=C\C/C=C\C/C=C\C/C=C\C/C=C\C/C=C\CCC(=O)OCC(O)C1OC(=O)C(O)=C1O (stereo not shown) : 92.26

Fluorescence intensity in this record for CCCCCC=CCC=CCCCCCCCC(=O)OCC(N)C(=O)O (stereo not shown) : 46.06
